# Tested on: NCI-H2405
# experiment.summary: relative viability (nuclei count vs DMSO), 5 days (fraction); higher = more cells survive
# condition.context: first compound 0.03162 µM
assay.endpoint: relative viability
I only need the number, thanks.

INSERT INTO measurements (compound, observed_measurement) VALUES
  ('O=c1cc(N2CCOCC2)oc2c(-c3cccc4c3sc3ccccc34)cccc12 + Nc1nc2[nH]cc(CCc3ccc(C(=O)N[C@@H](CCC(=O)O)C(=O)O)cc3)c2c(=O)[nH]1 [Pemetrexed] (partner 0.2 µM)', 1.18);

Please turn your attention to the following entry.
In: Given CCN(CC)CCCCNc1ncc2cc(-c3cc(OC)cc(OC)c3)c(NC(=O)NC(C)(C)C)nc2n1 + COc1cc2c(Oc3ccc(NC(=O)C4(C(=O)Nc5ccc(F)cc5)CC4)cc3F)ccnc2cc1OCCCN1CCOCC1 [Foretinib] (partner 0.25 µM) , state its recorded relative viability.
Out: 1.05

====

# Tested on: NCI-H1355
# experiment.summary: relative viability (nuclei count vs DMSO), 5 days (fraction); higher = more cells survive
# condition.context: first compound 0.8 µM
relative viability: recorded values
Please reply with the value in numeric form only.

INSERT INTO results (compound, measured_target, observed_measurement) VALUES
  ('O=c1cc(-c2cccc3c2Sc2ccccc2S3)oc(N2CCOCC2)c1 + Cc1nc(Nc2ncc(C(=O)Nc3c(C)cccc3Cl)s2)cc(N2CCN(CCO)CC2)n1 [Dasatinib] (partner 0.075 µM)', 'NCI-H1355', 0.488),
  ('COc1nc(C)cnc1NS(=O)(=O)c1cccnc1-c1ccc(-c2nnco2)cc1 [Zibotentan] + CCNC(=O)c1noc(-c2cc(C(C)C)c(O)cc2O)c1-c1ccc(CN2CCOCC2)cc1 [Luminespib] (partner 0.01 µM)', 'NCI-H1355', 0.773),
  ('O=c1cc(-c2cccc3c2Sc2ccccc2S3)oc(N2CCOCC2)c1 + N=C(N)NC(=N)NCCc1ccccc1 [Phenformin] (partner 250 µM)', 'NCI-H1355', 0.421);

In: Query (compound): COc1nc(C)cnc1NS(=O)(=O)c1cccnc1-c1ccc(-c2nnco2)cc1 [Zibotentan] + Cc1nc(NC(=O)N2CCC[C@H]2C(N)=O)sc1-c1ccnc(C(C)(C)C(F)(F)F)c1 [Alpelisib] (partner 2 µM) ; field requested: relative viability
Out: 0.825

In: Further, for O=c1cc(-c2cccc3c2Sc2ccccc2S3)oc(N2CCOCC2)c1 + Nc1ncn([C@H]2C[C@H](O)[C@@H](CO)O2)c(=O)n1 [Decitabine] (partner 2 µM) ?
Out: 0.342

In: Now consider O=c1cc(-c2cccc3c2Sc2ccccc2S3)oc(N2CCOCC2)c1 + CC1(C)CCC(c2ccc(Cl)cc2)=C(CN2CCN(c3ccc(C(=O)NS(=O)(=O)c4ccc(N[C@H](CCN5CCOCC5)CSc5ccccc5)c(S(=O)(=O)C(F)(F)F)c4)cc3)CC2)C1 [Navitoclax] (partner 0.5 µM) .
Out: 0.847

====

# Test system: COR-L 105
# experiment.summary: relative viability (nuclei count vs DMSO), 5 days (fraction); higher = more cells survive
# condition.context: first compound 0.3162 µM
assay.endpoint: relative viability
The response must contain the number and no unit.

Completed entries (count: 3):
INSERT INTO measurements (molecule, measured_target, observed_measurement) VALUES
  ('CCN(CC)CCCCNc1ncc2cc(-c3cc(OC)cc(OC)c3)c(NC(=O)NC(C)(C)C)nc2n1 + CCNC(=O)c1noc(-c2cc(C(C)C)c(O)cc2O)c1-c1ccc(CN2CCOCC2)cc1 [Luminespib] (partner 0.01 µM)', 'COR-L 105', 0.795),
  ('O=c1cc(N2CCOCC2)oc2c(-c3cccc4c3sc3ccccc34)cccc12 + N=C(N)NC(=N)NCCc1ccccc1 [Phenformin] (partner 250 µM)', 'COR-L 105', 0.568),
  ('CCN(CC)CCCCNc1ncc2cc(-c3cc(OC)cc(OC)c3)c(NC(=O)NC(C)(C)C)nc2n1 + CC1(C)CCC(c2ccc(Cl)cc2)=C(CN2CCN(c3ccc(C(=O)NS(=O)(=O)c4ccc(N[C@H](CCN5CCOCC5)CSc5ccccc5)c(S(=O)(=O)C(F)(F)F)c4)cc3)CC2)C1 [Navitoclax] (partner 0.5 µM)', 'COR-L 105', 0.872);

# context switch: different molecule, same relative viability
In: What value of relative viability has been reported for the following molecule? O=c1cc(N2CCOCC2)oc2c(-c3cccc4c3sc3ccccc34)cccc12 + Nc1ncn([C@H]2C[C@H](O)[C@@H](CO)O2)c(=O)n1 [Decitabine] (partner 2 µM)
Out: 0.769

====

# System: NCI-H2126
# experiment.summary: relative viability (nuclei count vs DMSO), 5 days (fraction); higher = more cells survive
# condition.context: first compound 0.2 µM
Reported relative viability values for the following compounds.
Just the number.

Completed entries (count: 3):
INSERT INTO results (compound, assay_endpoint, observed_measurement) VALUES
  ('COCC1(CO)C(=O)C2CCN1CC2 (stereo not given) [PRIMA-1MET] + Cc1nc(NC(=O)N2CCC[C@H]2C(N)=O)sc1-c1ccnc(C(C)(C)C(F)(F)F)c1 [Alpelisib] (partner 2 µM)', 'relative viability', 0.822),
  ('COCC1(CO)C(=O)C2CCN1CC2 (stereo not given) [PRIMA-1MET] + NC(=O)Nc1cc(-c2cccc(F)c2)sc1C(=O)N[C@H]1CCCNC1 [AZD7762] (partner 0.2 µM)', 'relative viability', 1.05),
  ('COCC1(CO)C(=O)C2CCN1CC2 (stereo not given) [PRIMA-1MET] + Cc1nc(Nc2ncc(C(=O)Nc3c(C)cccc3Cl)s2)cc(N2CCN(CCO)CC2)n1 [Dasatinib] (partner 0.075 µM)', 'relative viability', 0.722);

In: Could you share which relative viability value was measured for COCC1(CO)C(=O)C2CCN1CC2 (stereo not given) [PRIMA-1MET] + CS(=O)(=O)CCNCc1ccc(-c2ccc3ncnc(Nc4ccc(OCc5cccc(F)c5)c(Cl)c4)c3c2)o1 [Lapatinib] (partner 2 µM) ?
Out: 0.875

In: And the next one, COCC1(CO)C(=O)C2CCN1CC2 (stereo not given) [PRIMA-1MET] + CC(=O)c1c(C)c2cnc(Nc3ccc(N4CCNCC4)cn3)nc2n(C2CCCC2)c1=O [Palbociclib] (partner 0.5 µM) ?
Out: 0.335

====

# Test system: HCC-15
# experiment.summary: relative viability (nuclei count vs DMSO), 5 days (fraction); higher = more cells survive
# condition.context: first compound 0.03162 µM
assay.endpoint: relative viability
Form: value (number only, do not type unit).

Reference set (3 entries):
INSERT INTO assay_data (molecule, observed_measurement) VALUES
  ('O=c1cc(N2CCOCC2)oc2c(-c3cccc4c3sc3ccccc34)cccc12 + O=C(CCCCCCC(=O)Nc1ccccc1)NO [Vorinostat] (partner 1 µM)', 0.775),
  ('O=c1cc(N2CCOCC2)oc2c(-c3cccc4c3sc3ccccc34)cccc12 + CC1(C)CCC(c2ccc(Cl)cc2)=C(CN2CCN(c3ccc(C(=O)NS(=O)(=O)c4ccc(N[C@H](CCN5CCOCC5)CSc5ccccc5)c(S(=O)(=O)C(F)(F)F)c4)cc3)CC2)C1 [Navitoclax] (partner 0.5 µM)', 0.706),
  ('CCN(CC)CCCCNc1ncc2cc(-c3cc(OC)cc(OC)c3)c(NC(=O)NC(C)(C)C)nc2n1 + NC(=O)Nc1cc(-c2cccc(F)c2)sc1C(=O)N[C@H]1CCCNC1 [AZD7762] (partner 0.2 µM)', 1.17);

With those in mind, consider the next molecule.
In: Bench note: what relative viability did CCN(CC)CCCCNc1ncc2cc(-c3cc(OC)cc(OC)c3)c(NC(=O)NC(C)(C)C)nc2n1 + CC(=O)Nc1cccc(-n2c(=O)n(C3CC3)c(=O)c3c(Nc4ccc(I)cc4F)n(C)c(=O)c(C)c32)c1 [Trametinib] (partner 0.02 µM) show?
Out: 0.367

====

# System: HCC-827
# experiment.summary: relative viability (nuclei count vs DMSO), 5 days (fraction); higher = more cells survive
# condition.context: first compound 0.3162 µM
Each entry below lists one item and its recorded relative viability value.
In your answer, state the number alone without any accompanying words.

Sample answers from the record:
INSERT INTO measurements (molecule, observed_measurement) VALUES
  ('CCN(CC)CCCCNc1ncc2cc(-c3cc(OC)cc(OC)c3)c(NC(=O)NC(C)(C)C)nc2n1 + CC1(C)CCC(c2ccc(Cl)cc2)=C(CN2CCN(c3ccc(C(=O)NS(=O)(=O)c4ccc(N[C@H](CCN5CCOCC5)CSc5ccccc5)c(S(=O)(=O)C(F)(F)F)c4)cc3)CC2)C1 [Navitoclax] (partner 0.5 µM)', 0.993),
  ('O=c1cc(N2CCOCC2)oc2c(-c3cccc4c3sc3ccccc34)cccc12 + Nc1ncn([C@H]2C[C@H](O)[C@@H](CO)O2)c(=O)n1 [Decitabine] (partner 2 µM)', 0.314),
  ('CCN(CC)CCCCNc1ncc2cc(-c3cc(OC)cc(OC)c3)c(NC(=O)NC(C)(C)C)nc2n1 + O=C(c1cc(Cc2n[nH]c(=O)c3ccccc23)ccc1F)N1CCN(C(=O)C2CC2)CC1 [Olaparib] (partner 8 µM)', 0.682),
  ('O=c1cc(N2CCOCC2)oc2c(-c3cccc4c3sc3ccccc34)cccc12 + CC(C)C[C@H](NC(=O)[C@H](Cc1ccccc1)NC(=O)c1cnccn1)B(O)O [Bortezomib] (partner 0.002 µM)', 1.06),
  ('CCN(CC)CCCCNc1ncc2cc(-c3cc(OC)cc(OC)c3)c(NC(=O)NC(C)(C)C)nc2n1 + O=C(CCCCCCC(=O)Nc1ccccc1)NO [Vorinostat] (partner 1 µM)', 0.937);

In: Hello, I am looking for reported relative viability with HCC-827 for O=c1cc(N2CCOCC2)oc2c(-c3cccc4c3sc3ccccc34)cccc12 + COc1cccc2cc(-c3nc([C@H]4CC[C@H](C(=O)O)CC4)n4ncnc(N)c34)[nH]c12 [OSI-027] (partner 0.5 µM) . Could you help?
Out: 0.772

In: // same read-out, input: CCN(CC)CCCCNc1ncc2cc(-c3cc(OC)cc(OC)c3)c(NC(=O)NC(C)(C)C)nc2n1 + CC(C)C[C@H](NC(=O)[C@H](Cc1ccccc1)NC(=O)c1cnccn1)B(O)O [Bortezomib] (partner 0.002 µM)
Out: 1.04
